experiment: Toxicity in iv dosed Mus musculus (mouse); type: organism-based; conditions: in vivo
quantity-kind: LD50
Respond with a number, then the unit of measure.

Item: CCN1C[C@]2(C)CC[C@H](O)[C@@]34C5C[C@@H]6[C@@H](OC)C[C@@](O)(C5[C@H]6O)[C@@H](CC23)C14 (stereo partly specified) | LD50: 51.5 mg/kg

====

system: Tribolium castaneum; experiment: Feeding deterrent activity against Tribolium castaneum (red flour beetle) adults using wheat flour assessed as consumption of diet at 100 ppm measured after 3 days relative to untreated control; format: functional
Each entry below carries its recorded Activity.
Answer format: numeric, % implied, no suffix.

CCN1C[C@]2(C)CC[C@H](O)[C@@]34C5C[C@@H]6[C@@H](OC)C[C@@](O)(C5[C@H]6O)[C@@H](CC23)C14 (stereo partly specified) [KARACOLINE] | 65.07

Item: CCN1C[C@]2(COC)CC[C@H](OC)[C@]34C1[C@H](C[C@H]23)[C@@]1(O)C[C@H](OC)[C@H]2C[C@@H]4[C@@H]1[C@H]2O [TALATISAMINE] | Activity: 60.82

Item: CCN1C[C@]2(C)CC[C@H](OC)[C@]34C1[C@H](C[C@H]23)[C@@]1(O)C[C@H](OC)[C@H]2C[C@@H]4[C@@H]1[C@H]2O [SACHACONITINE] | Activity: 62.19

====

tested on: Tribolium castaneum; test: Feeding deterrent activity against Tribolium castaneum (red flour beetle) adults using wheat flour assessed as consumption of diet at 100 ppm measured after 3 days relative to untreated control; format: functional
Each entry below carries its recorded Activity.
Answer format: numeric, % implied, no suffix.

Below are worked cases with known answers.
CCN1C[C@]2(COC)CC[C@H](OC)[C@]34C1[C@H]([C@H](OC)[C@H]23)[C@@]1(O)C[C@H](OC)[C@H]2C[C@@H]4[C@@H]1[C@H]2O | 61.64
CCN1C[C@]2(COC)CC[C@H](OC)[C@]34C1[C@H]([C@H](OC)[C@H]23)[C@@]1(OC(C)=O)C[C@H](OC)[C@@]2(O)C[C@@H]4[C@@H]1[C@H]2OC(=O)c1ccc(OC)cc1 | 78.36

Now look at this entry.
Form: item CCN1C[C@]2(COC)[C@H](O)C[C@H](OC)[C@]34C1[C@H]([C@H](OC)[C@H]23)[C@@]1(OC(C)=O)C[C@H](OC)[C@@]2(O)C[C@@H]4[C@@H]1[C@H]2OC(=O)c1ccc(OC)cc1 ; test system Tribolium castaneum; Activity: 68.37
